# pIC50 per record follows
- tgt: c-Kit(V654A) (Homo sapiens, UniProt P10721, V654A)
- test summary: c-Kit(V654A) assay
- Format: biochemical
- particulars: Table 1; 200 μM ATP
Expect pIC50 as a plain number equal to -log10 of the molar concentration.

// known answers, use as guide
compound: COCCOc1cc2[nH]nc(-c3cc(-c4ccc(S(C)(=N)=O)cc4)no3)c2cc1F (stereo not drawn)
tgt: c-Kit(V654A) (Homo sapiens, UniProt P10721, V654A)
reported measurement: 8.70
--
compound: COCCOc1cc2[nH]nc(-c3cc(-c4ccc(N5CCN(C)CC5)cc4)no3)c2cc1F
tgt: c-Kit(V654A) (Homo sapiens, UniProt P10721, V654A)
reported measurement: 8.70

Now for the compound whose pIC50 we want.
Task: Sample COCCOc1cc2[nH]nc(-c3cc(-c4ccc(C(=O)N5CC(N6CCOC[C@H]6C)C5)cc4)no3)c2cc1F — what was its pIC50?
Result: 8.70

* * *

- tgt: mutant cKIT (560-576 and V654A) in GIST430/654 cell line (Homo sapiens (Human), UniProt P10721, DEL560-576/V654A)
- Sequence (P10721 other isoform, or with tags, fused parts or gaps V654A/del 1-25/del 560-576 limits assumed): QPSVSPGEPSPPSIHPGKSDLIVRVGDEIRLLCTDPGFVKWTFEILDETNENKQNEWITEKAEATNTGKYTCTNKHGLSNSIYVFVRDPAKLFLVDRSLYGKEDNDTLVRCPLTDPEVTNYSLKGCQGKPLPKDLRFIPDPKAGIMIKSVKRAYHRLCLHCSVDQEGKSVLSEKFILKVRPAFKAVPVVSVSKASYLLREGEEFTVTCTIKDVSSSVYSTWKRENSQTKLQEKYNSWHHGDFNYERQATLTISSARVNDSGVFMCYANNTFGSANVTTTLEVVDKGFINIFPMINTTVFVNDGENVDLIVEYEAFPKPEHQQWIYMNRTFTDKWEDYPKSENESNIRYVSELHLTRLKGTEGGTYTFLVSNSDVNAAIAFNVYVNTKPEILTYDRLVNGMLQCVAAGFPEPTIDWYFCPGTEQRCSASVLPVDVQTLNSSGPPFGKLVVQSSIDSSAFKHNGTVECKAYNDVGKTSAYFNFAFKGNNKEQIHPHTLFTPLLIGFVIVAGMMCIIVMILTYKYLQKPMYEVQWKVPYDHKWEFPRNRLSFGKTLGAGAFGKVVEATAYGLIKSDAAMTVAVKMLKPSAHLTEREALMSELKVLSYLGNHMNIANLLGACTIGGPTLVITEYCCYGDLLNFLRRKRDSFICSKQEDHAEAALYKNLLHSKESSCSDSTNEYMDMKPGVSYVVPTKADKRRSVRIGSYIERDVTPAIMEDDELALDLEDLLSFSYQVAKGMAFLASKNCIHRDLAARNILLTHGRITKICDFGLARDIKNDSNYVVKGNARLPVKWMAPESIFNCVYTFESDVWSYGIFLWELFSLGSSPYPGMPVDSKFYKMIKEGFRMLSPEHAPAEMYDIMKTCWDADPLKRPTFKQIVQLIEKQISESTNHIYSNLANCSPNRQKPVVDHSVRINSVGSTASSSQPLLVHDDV
- test summary: Cellular testing of cKIT mutant inhibitors: phospho-Y307-cKIT Luminex assay in GIST430/654 cells
- Assay type: cell-based
- particulars: Table 1; cKIT autophosphorylation, compounds 45 min; read-out: GIST 430/654 IC50
# IC50 per record follows
Field format: number, assumed nM, no unit text.

// known answers, use as guide
smiles notation: COCCOc1cc2[nH]nc(-c3cc(-c4ccc(C(=O)N5CC(N6CCOCC6)C5)cn4)no3)c2cc1F
recorded metric: IC50
units label: nM
reported measurement: 420

smiles notation: O=C(c1ccc(-c2cc(-c3n[nH]c4cc(OCCO)c(F)cc34)on2)cc1)N1CCNCC1
recorded metric: IC50
units label: nM
reported measurement: 250

smiles notation: COCCOc1cc2[nH]nc(-c3cc(-c4ccc(C(=O)N5CC[C@@H]5C(C)(C)O)cc4)no3)c2cc1F
recorded metric: IC50
units label: nM
reported measurement: 52

Task: Sample COCCOc1cc2[nH]nc(-c3cc(-c4ccc(C(=O)N5CC(n6ccnc6)C5)cc4)no3)c2cc1F — what was its IC50?
Result: 130

Task: Now try COCCOc1cc2[nH]nc(-c3cc(-c4ccc(C(=O)N5CC6(CN(C)C6)C5)cc4)no3)c2cc1F .
Result: 170

Task: Now try COCCOc1cc2[nH]nc(-c3cc(-c4ccc(C(=O)N5CC[C@@H](F)C5)cc4)no3)c2cc1F .
Result: 57

Task: Now try COCCOc1cc2[nH]nc(-c3cc(-c4ccc(OCCN5CCS(=O)(=O)CC5)cc4)no3)c2cc1F .
Result: 93

* * *

- tgt: mutant cKIT (560-576 and V654A) in GIST430/654 cell line (Homo sapiens (Human), UniProt P10721, DEL560-576/V654A)
- test summary: Cellular testing of cKIT mutant inhibitors: phospho-Y307-cKIT Luminex assay in GIST430/654 cells
- Type: cell-based
- particulars: Table 1; cKIT autophosphorylation, compounds 45 min; read-out: GIST 430/654 IC50
Note to self: use T only for IC50 readings below 300 nM; a reading exactly at 300 nM still gets F.

# count of solved cases: 5
molecule: COCCOc1cc2[nH]nc(-c3cc(-c4ccc(C(=O)N5Cc6cnn(C)c6C5)cc4)no3)c2cc1F
category: T

molecule: COCCOc1cc2[nH]nc(-c3cc(-c4ccc(C(=O)N5CCS(=O)(=O)CC5C)cc4)no3)c2cc1F (centres unmarked)
category: T

molecule: COCCOc1cc2[nH]nc(-c3cc(-c4ccc(C(=O)N5CC(c6nc(C)no6)C5)cc4)no3)c2cc1F
category: T

molecule: COCCOc1cc2[nH]nc(-c3cc(-c4ccc(C(=O)N5CC[C@@H](F)C5)nc4)no3)c2cc1F
category: F

molecule: COCCOc1cc2[nH]nc(-c3cc(-c4ccc(C(=O)N5CC[S+]([O-])CC5)cc4)no3)c2cc1F
category: T

Task: Does this molecule meet the criterion IC50 < 300 nM? COCCOc1cc2[nH]nc(-c3cc(-c4ccc(N5CC(N6CCOCC6)C5)nc4)no3)c2cc1F
Result: F

Task: Now try COCCOc1cc2[nH]nc(-c3cc(-c4ccc(S(=O)(=O)N(C)C)cc4)no3)c2cc1F .
Result: F

Task: Now try Cn1cc(-c2ccc3c(-c4cc(-c5ccc(C(=O)N6CCC[C@@H]6C(C)(C)O)cc5)no4)n[nH]c3c2)cn1 .
Result: T
